- procedure.details: qHTS assay for small molecule agonists of the p53 signaling pathway - cell viability (AID 651633); further: nearly all actives have a fitted effect of over 30% in size
- measurement.parameters: p53RE-bla HCT-116 viability, ATP luminescence, 16 h; series mostly up to 83.3 µM
- Description: National Center for Advancing Translational Sciences [NCATS] NIH Chemical Genomics Center [NCGC] U.S. Environmental Protection Agency [EPA] National Institutes of Environmental Health Sciences [NIEHS] National Toxicology Program [NTP] U.S. Food and Drug Administration [FDA] p53, a tumor suppressor protein, is activated following cellular insult, including DNA damage and other cellular stresses. […] The activation of the reporter gene under culture conditions can be detected by fluorescence intensity. […]
Results filed as inconclusive are left out. Calls of active or inactive are those of the source. The call rests on the fitted dose curve.
The reply should name one outcome from yes = active, no = inactive

stdin: Entry "CC(C)(C)c1cccc(C(C)(C)C)c1O" : call = ?
stdout: no

stdin: Hi team, can someone confirm the assay call for CCC(Cc1c(I)cc(I)c(N)c1I)C(=O)O (stereo unspecified) ?
stdout: no

stdin: Please state the recorded outcome for this molecule: "CC1(C)NC(=O)N(c2ccc([N+](=O)[O-])c(C(F)(F)F)c2)C1=O"
stdout: no

stdin: Per the records of this test, what outcome belongs to "C1CN(SSN2CCOCC2)CCO1" ?
stdout: no

stdin: Tell me the recorded outcome of this test for "CC[C@]12CCCN3CCc4c(n(c5ccccc45)[C@@](O)(C(=O)OC)C1)[C@@H]32" .
stdout: no

stdin: I'd appreciate the recorded outcome for "Oc1ccc(C(c2ccc(O)cc2)C(Cl)(Cl)Cl)cc1" from this test.
stdout: yes

---

- procedure.details: qHTS assay to identify small molecule agonists of H2AX - cell viability counter screen (AID 1224847);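 further: wild-type CHO-K1 cells; top concentration of the series differs between compounds; nearly all actives have a fitted effect of over 30% in size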
- measurement.parameters: CHO-K1 viability, CellTiter-Glo luminescence, 3 h; series mostly up to 154 µM
Inconclusive results are not listed. Activity calls are given as the source filed them. The call rests on the fitted dose curve.
Hi there, use one of these labels in your reply, thanks! active, inactive

>  <compound>
CC(=O)Oc1ccc(C(c2ccc(OC(C)=O)cc2)c2ccccn2)cc1

>  <assigned.label>
inactive

$$$$

Moving on to the next compound.
stdin: Any idea what this test logged for "Cc1ccc(/C(=C\CN2CCCC2)c2ccccn2)cc1" ?
stdout: inactive

---

- procedure.details: qHTS assay to identify small molecule agonists of H2AX - cell viability counter screen (AID 1224847);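 further: wild-type CHO-K1 cells; top concentration of the series differs between compounds; nearly all actives have a fitted effect of over 30% in size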
- measurement.parameters: CHO-K1 viability, CellTiter-Glo luminescence, 3 h; series mostly up to 154 µM
Inconclusive results are not listed. The source made the active and inactive calls. Calls come from the whole dose curve.
// classify into active, inactive

stdin: Which result was noted for this compound in the test: "COc1ccc2nc(N)sc2c1"
stdout: inactive

stdin: Assay result, entry CCc1cccc2c3c([nH]c12)C(CC)(CC(=O)O)OCC3 (centres undefined) — outcome?
stdout: inactive

stdin: Could you check what this test reported for "CCO[Si](CCCNC(N)=O)(OCC)OCC" ?
stdout: inactive

stdin: Could you please tell me the result logged for "Brc1nc2ccccc2s1" in this assay?
stdout: inactive

stdin: What call does the record list for "CC(C)[N+](C)(CCOC(=O)C1c2ccccc2Oc2ccccc21)C(C)C" ?
stdout: inactive

stdin: Record request — test call for "CCCCCC=O"
stdout: inactive

---

- procedure.details: qHTS RealTime-Glo MT Cell Viability Assay in HEK293 cells - 24 hour (AID 1224886); further: nearly all actives have a fitted effect of over 50% in size
- measurement.parameters: RealTime-Glo luminescence; series mostly up to 76.8 µM
Results filed as inconclusive are left out. Activity calls are given as the source filed them. Calls come from the whole dose curve; as a rule, active = well fitted cell-killing curve with a large enough effect in the repeat runs; inconclusive = weak or mixed curves, or effect the other way; inactive = flat fitted curve, though single readings scatter.
Log the outcome using a class from 1.0 (active), 0.0 (inactive)

Here's what some known entries look like.
>  <compound>
C[C@]12CC[C@@H]3c4ccc(O)cc4CC[C@H]3[C@@H]1CC[C@@H]2O

>  <assigned.label>
1.0

$$$$
>  <compound>
CC1=CC(C)(C)Nc2ccccc21

>  <assigned.label>
0.0

$$$$
>  <compound>
IC(I)I

>  <assigned.label>
0.0

$$$$
>  <compound>
CC(=O)Nc1ccc2c(c1)Cc1cc(NC(C)=O)ccc1-2

>  <assigned.label>
0.0

$$$$

Read the next record carefully.
stdin: Give the logged outcome of this assay for the following compound: "c1ccc2c(c1)ccc1ncccc12"
stdout: 0.0
